This collection of values is drawn from PubChem BioAssay AID2557.

Target: Integrin alpha-4 (Homo sapiens) (UniProt P13612)
Sequence (P13612 whole entry, looked up): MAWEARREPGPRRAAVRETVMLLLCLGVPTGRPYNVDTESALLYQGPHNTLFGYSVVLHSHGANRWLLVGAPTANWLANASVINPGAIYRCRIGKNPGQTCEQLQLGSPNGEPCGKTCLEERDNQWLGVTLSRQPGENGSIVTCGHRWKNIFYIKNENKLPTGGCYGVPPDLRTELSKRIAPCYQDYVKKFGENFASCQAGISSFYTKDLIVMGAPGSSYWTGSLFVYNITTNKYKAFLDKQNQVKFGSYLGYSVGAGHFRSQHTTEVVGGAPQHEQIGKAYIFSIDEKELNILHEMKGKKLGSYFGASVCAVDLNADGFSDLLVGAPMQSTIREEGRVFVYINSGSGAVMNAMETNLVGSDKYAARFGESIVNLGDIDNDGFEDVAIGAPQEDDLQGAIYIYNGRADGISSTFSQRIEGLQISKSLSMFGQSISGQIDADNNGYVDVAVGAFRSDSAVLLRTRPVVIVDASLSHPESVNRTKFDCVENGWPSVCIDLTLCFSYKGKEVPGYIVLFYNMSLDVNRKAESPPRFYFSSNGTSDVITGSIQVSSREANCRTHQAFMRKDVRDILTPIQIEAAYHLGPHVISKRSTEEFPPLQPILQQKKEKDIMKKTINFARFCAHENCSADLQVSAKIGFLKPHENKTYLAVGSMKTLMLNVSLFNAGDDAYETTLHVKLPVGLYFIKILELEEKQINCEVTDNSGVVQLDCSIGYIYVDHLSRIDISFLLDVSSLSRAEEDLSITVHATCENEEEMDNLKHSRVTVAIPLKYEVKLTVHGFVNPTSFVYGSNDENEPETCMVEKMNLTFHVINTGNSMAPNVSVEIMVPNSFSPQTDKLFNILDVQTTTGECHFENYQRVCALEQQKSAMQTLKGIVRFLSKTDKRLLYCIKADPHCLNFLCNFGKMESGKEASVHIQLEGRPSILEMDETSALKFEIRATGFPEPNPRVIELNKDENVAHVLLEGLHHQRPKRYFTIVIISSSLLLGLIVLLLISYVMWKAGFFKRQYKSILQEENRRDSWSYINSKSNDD
Test: inhibition in human VLA-4 binding assay, primary screen, VLA-4 allosteric modulator project, MLPCN library, flow cytometry, VLA-4 expressing cells (AID 2557)
Conditions: ligand binding flow cytometry, hits give high values, about 7 µM as worked out from the volumes in the protocol
Out of some 330,000 compounds screened, about 650 (0.2%) were called active. The sample holds actives, similar compounds and a random draw of the others, so the mix is not that of the screen.
Answer each item with its documented inhibition.
Numbers only, in %.

Sample answers from the record:
* Cc1noc(C)c1CSCC(=O)N(CCC(C)C)c1c(N)n(Cc2ccccc2)c(=O)[nH]c1=O | -2.16
* CCOC(=O)Nc1ccc(NC(=O)OCC)cc1 | 10.4

For every record below, what is its inhibition?
1. C=CC(COCc1ccccc1)N(CC(=O)OC)S(=O)(=O)c1cc(Br)ccc1OC (centres undefined)
2. COc1ccccc1/C=C/C(=O)OCC(=O)NC1CCCCCC1
3. CCNC(=S)NNC(=O)Cc1ccccc1
4. CC(C)(C)C1CCC(C(=O)Nc2cccnc2)CC1 (centres undefined)
5. CC(C)Cn1cnc2c1c(=O)n(CC(O)c1ccccc1)c(=O)n2CC(C)C (centres undefined)
6. CCCCOc1ccc(N(CC(=O)NC(C)C)C(=O)CCC(=O)Nc2ccccn2)cc1
7. Cc1cccc(CN2CCC(n3nccc3NC(=O)c3ccccc3C)CC2)n1

Result:
1: 0.47; 2: 9.38; 3: 94.9; 4: 13.3; 5: -0.03; 6: 23.1; 7: -1.23
